molecular target: UniProtKB P27487; assay: DPIV inhibition assay (L-alanyl-L-proline-para-nitroanilide substrate, absorbance at 410 nm); conditions: IC50 at pH 8, DPIV; pH 8
Sequence (P27487 whole entry): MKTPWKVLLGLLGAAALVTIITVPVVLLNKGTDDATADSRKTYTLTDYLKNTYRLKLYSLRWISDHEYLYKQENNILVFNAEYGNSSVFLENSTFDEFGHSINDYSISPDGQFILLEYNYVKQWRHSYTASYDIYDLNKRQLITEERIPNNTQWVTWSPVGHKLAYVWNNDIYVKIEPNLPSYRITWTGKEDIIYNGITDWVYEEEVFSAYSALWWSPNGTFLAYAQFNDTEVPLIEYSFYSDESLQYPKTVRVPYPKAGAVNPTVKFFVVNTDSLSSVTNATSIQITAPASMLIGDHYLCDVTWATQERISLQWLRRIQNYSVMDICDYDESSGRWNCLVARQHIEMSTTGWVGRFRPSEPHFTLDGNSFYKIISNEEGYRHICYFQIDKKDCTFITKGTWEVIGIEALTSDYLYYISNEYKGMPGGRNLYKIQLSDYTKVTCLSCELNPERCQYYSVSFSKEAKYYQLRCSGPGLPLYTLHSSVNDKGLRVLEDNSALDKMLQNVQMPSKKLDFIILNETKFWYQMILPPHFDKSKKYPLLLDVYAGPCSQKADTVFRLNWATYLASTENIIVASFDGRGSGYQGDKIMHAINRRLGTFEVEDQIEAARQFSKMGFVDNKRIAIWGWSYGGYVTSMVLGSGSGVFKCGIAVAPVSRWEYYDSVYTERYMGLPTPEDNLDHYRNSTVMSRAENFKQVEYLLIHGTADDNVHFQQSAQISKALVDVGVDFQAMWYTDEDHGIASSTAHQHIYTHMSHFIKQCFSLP
readout.name: IC50 (µM)

1) CC1CC[C@@H](B(O)O)N1C(=O)[C@H](C)N (stereo partly shown)	15.4

====

Biological target: DP9 (Homo sapiens, UniProt Q86TI2)
Sequence (Q86TI2 whole entry, species assumed): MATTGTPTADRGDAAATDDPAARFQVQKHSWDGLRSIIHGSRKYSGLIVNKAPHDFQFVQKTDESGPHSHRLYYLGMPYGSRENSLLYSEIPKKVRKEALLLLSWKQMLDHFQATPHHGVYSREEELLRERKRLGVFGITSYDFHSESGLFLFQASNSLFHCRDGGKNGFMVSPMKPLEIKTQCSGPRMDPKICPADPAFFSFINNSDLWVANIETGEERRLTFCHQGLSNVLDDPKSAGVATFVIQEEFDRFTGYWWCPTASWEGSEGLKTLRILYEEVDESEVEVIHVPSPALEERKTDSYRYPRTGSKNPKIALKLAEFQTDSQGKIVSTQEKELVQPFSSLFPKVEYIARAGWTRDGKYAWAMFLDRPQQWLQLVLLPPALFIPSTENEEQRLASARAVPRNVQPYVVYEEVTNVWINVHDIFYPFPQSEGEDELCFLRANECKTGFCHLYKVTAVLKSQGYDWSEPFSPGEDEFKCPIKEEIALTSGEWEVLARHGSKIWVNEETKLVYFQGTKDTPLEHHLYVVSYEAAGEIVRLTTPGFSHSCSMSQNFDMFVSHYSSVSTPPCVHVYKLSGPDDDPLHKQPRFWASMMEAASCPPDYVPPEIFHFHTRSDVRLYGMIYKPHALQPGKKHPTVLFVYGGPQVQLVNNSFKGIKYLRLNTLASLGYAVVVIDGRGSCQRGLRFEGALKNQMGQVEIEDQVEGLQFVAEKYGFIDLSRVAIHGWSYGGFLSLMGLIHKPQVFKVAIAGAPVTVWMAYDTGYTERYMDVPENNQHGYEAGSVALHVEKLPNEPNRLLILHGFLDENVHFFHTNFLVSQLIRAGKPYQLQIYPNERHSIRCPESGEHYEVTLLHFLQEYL
Test: Dipeptidyl peptidase 9 inhibition assay (Example 1 assay with DP9 substituted for DPIV)
Format: biochemical
Settings: DP9; at the pH values tested; read-out: IC50
Procedure: In this example, the assay was conducted for DPIV and DP9. The ratio of IC50 values for each tested compound was calculated in order to determine the selectivity for the DPIV isoform. IC50 values were measured at the same pH throughout the assay.
readout.name: IC50

1) C[C@H](N)C(=O)N1C(CO)CCC1B(O)O (stereo partly drawn) [L-Ala-[5-(HOCH2)-2-boroPro]]	> 70 µM
